system: MKNK1 (human), Q9BUB5 [T385D; 165-205 del]; experiment: radiometric filter-binding kinase assay, Kinase HotSpot; details: compound 0.5 µM; ATP 10 µM
Sequence (Q9BUB5 whole entry, looked up, stated change not applied): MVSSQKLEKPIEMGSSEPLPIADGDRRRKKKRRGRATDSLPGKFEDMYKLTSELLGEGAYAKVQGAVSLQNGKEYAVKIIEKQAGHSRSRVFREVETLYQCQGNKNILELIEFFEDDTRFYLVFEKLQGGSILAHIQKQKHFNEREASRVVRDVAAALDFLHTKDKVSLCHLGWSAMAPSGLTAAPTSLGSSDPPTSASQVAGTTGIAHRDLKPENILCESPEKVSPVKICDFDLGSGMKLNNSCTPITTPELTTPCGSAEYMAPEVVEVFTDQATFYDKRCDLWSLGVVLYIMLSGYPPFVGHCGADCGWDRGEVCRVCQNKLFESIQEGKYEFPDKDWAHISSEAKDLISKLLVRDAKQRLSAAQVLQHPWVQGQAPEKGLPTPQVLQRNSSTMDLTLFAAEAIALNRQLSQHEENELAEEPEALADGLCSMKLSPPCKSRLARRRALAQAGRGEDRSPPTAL
residual activity vs 90%: less than gives 1; not less than gives -1.

> print(dat)
                               entry.smiles  class.name
1  O=C1Nc2ccc(Cl)cc2/C1=C/c1cc(Cl)c(O)c(Cl)c1          -1
2  Nc1nccc(-c2c(-c3ccc(F)cc3)ncn2C2CCNCC2)n1          -1
3  O=C1Nc2ccc(Br)cc2/C1=C\c1cc2c([nH]1)CCCC2          -1
4  Cn1c2ccccc2c2c3c(c4c5ccccc5n(CCC#N)c4c21)CNC3=O           1

----------
target: MYO3B (human) (UniProt Q8WXR4); experiment: radiometric filter-binding kinase assay, Kinase HotSpot; conditions: compound 0.5 µM; ATP 10 µM
Sequence (Q8WXR4 whole entry, looked up): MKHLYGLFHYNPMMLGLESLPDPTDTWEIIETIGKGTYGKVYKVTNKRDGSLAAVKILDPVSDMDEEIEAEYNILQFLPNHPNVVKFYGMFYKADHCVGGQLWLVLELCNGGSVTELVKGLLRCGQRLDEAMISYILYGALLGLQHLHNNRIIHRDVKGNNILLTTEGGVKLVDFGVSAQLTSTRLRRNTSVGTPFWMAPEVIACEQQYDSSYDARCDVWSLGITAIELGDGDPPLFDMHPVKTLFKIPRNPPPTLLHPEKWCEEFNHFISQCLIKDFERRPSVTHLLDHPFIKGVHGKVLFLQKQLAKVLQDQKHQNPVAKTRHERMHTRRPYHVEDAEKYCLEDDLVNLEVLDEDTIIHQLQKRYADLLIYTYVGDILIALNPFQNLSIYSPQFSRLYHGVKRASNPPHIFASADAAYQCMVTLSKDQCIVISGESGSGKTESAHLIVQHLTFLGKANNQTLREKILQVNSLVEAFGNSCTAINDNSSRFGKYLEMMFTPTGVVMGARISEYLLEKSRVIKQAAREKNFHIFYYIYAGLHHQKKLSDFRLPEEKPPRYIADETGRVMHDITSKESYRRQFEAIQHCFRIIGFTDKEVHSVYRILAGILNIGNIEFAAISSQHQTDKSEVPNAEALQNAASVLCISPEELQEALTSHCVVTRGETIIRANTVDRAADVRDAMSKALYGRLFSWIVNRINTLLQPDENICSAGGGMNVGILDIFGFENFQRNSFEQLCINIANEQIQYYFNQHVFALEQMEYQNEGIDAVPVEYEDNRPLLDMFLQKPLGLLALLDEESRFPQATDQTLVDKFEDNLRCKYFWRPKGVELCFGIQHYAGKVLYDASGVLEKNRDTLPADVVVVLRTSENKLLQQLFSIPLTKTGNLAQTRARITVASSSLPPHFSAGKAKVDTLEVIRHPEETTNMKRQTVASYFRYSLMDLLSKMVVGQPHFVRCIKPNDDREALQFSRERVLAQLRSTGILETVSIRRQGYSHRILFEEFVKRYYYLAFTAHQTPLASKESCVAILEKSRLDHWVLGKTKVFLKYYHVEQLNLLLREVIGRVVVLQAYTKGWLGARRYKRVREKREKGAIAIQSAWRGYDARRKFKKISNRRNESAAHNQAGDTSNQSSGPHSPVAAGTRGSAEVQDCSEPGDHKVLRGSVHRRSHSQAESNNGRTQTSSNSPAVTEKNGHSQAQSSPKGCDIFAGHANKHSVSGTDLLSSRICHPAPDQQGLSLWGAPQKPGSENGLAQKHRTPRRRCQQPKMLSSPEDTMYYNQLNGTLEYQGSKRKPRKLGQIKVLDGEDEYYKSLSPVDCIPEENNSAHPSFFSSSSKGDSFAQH
Think of 90% as a floor: if residual activity stands on it or above, it is T; beneath it, F.

> print(dat)
                                entry.smiles  class.name
 1  O=C1Nc2ccc(Br)cc2/C1=C\c1cc2c([nH]1)CCCC2           F
 2  Cc1cccc(-c2nc(C(C)(C)C)[nH]c2-c2ccc3c(c2)OCO3)n1           F
 3  CS(=O)(=O)CCNCc1ccc(-c2ccc3ncnc(Nc4ccc(OCc5cccc(F)c5)c(Cl)c4)c3c2)o1           T
 4  COc1cc2ncnc(Nc3ccc(Oc4ccccc4)cc3)c2cc1OC           T
 5               c1ccc2c(-c3ccncc3)c[nH]c2c1           T
 6       Fc1ccc(-c2nc3n(c2-c2ccncc2)CCS3)cc1           T
 7  CN(C)S(=O)(=O)c1ccc2c(c1)/C(=C/c1cc3c([nH]1)CCCC3)C(=O)N2           T
 8  CO[C@@H]1[C@H](N(C)C(=O)c2ccccc2)C[C@H]2O[C@]1(C)n1c3ccccc3c3c4c(c5c6ccccc6n2c5c31)C(=O)NC4           F
 9  COc1cc(Nc2c(C#N)cnc3cc(OCCCN4CCN(C)CC4)c(OC)cc23)c(Cl)cc1Cl           F
10  Cc1cncc2cccc(S(=O)(=O)N3CCCN(C(=O)CN)C[C@H]3C)c12           T
11  O=C1C(Cl)=C(N2C(=O)CCC2=O)C(=O)c2ccccc21           T
12            Cc1nc(-c2ccccc2)c(-c2ccncc2)o1           T

----------
# residual activity listing for each entry below
target: MAPK12 (human) (UniProt P53778); assay: radiometric filter-binding kinase assay, Kinase HotSpot; settings: compound 0.5 µM; ATP 10 µM
Sequence (P53778 whole entry, looked up): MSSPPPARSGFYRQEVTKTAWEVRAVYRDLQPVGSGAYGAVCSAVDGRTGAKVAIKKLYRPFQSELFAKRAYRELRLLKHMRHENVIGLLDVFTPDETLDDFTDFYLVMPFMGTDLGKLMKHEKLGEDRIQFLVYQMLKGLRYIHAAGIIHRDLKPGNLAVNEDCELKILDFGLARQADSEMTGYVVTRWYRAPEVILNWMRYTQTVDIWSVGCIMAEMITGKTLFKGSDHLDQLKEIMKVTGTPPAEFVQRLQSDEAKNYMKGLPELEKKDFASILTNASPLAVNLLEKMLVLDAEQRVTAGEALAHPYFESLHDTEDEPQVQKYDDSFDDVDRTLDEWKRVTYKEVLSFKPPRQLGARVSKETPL
measure: residual activity (%)

> print(dat)
                               entry.smiles  experimental.value
1  Cn1c2ccccc2c2c3c(c4c5ccccc5n(CCC#N)c4c21)CNC3=O                85.8
2  COc1cc2ncnc(Nc3ccc(OCc4ccccc4)cc3)c2cc1OC                 102
3  COc1ccc(S(=O)(=O)N(CCO)c2ccccc2CN(C)C/C=C/c2ccc(Cl)cc2)cc1                98.9
4  COc1cc2ncnc(Nc3ccc(Oc4ccccc4)cc3)c2cc1OC                 105
5    O=C1NC(=O)c2c1c1c3ccccc3[nH]c1n1cncc21                85.9
6     COc1ccc2c(c1)/C(=C/c1cnc[nH]1)C(O)=N2                95.5
